test system: HOP-62 complex spheroids with HUVEC/MSC, viability; assay: Anticancer human tumor HOP-62 cell line growth inhibition [RAS]; conditions: second compound 1 µM; first compound 0.01 µM; active means viability on the fitted dose curve at most 10% of control; inactive means the rest;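 further: spheroids exposed to agents for seven days before readout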
Pick one: active, inactive

Hi team, can someone confirm the assay call for Nc1ccn(C2OC(CO)C(O)C2(F)F)c(=O)n1 (stereo unspecified) + C=CC(=O)N1CCN(c2nc(OCC3CCCN3C)nc3c(F)c(-c4nc(N)cc(C)c4C(F)(F)F)c(Cl)cc23)C(C)C1 ?
active

Hi team, can someone confirm the assay call for C=CC(=O)Nc1cc(Nc2nccc(-c3cn(C)c4ccccc34)n2)c(OC)cc1N(C)CCN(C)C + C#Cc1c(F)ccc2cc(O)cc(-c3ncc4c(N5CC6CCC(C5)N6)nc(OCC56CCCN5CC(F)C6)nc4c3F)c12 ?
inactive

Hi team, can someone confirm the assay call for C=CC(=O)Nc1cc(Nc2nccc(-c3cn(C)c4ccccc34)n2)c(OC)cc1N(C)CCN(C)C + C=CC(=O)N1CCN(c2nc(OCC3CCCN3C)nc3c(F)c(-c4nc(N)cc(C)c4C(F)(F)F)c(Cl)cc23)C(C)C1 ?
inactive

Hi team, can someone confirm the assay call for CCN1CCN(Cc2ccc(Nc3ncc(F)c(-c4cc(F)c5nc(C)n(C(C)C)c5c4)n3)nc2)CC1 + C=CC(=O)N1CCN(c2nc(OCC3CCCN3C)nc3c(F)c(-c4nc(N)cc(C)c4C(F)(F)F)c(Cl)cc23)C(C)C1 ?
inactive

Hi team, can someone confirm the assay call for CC(C)n1nc(-c2ccc3oc(N)nc3c2)c2c(N)ncnc21 + C#Cc1c(F)ccc2cc(O)cc(-c3ncc4c(N5CC6CCC(C5)N6)nc(OCC56CCCN5CC(F)C6)nc4c3F)c12 ?
inactive

Hi team, can someone confirm the assay call for C=CC(=O)N1CCN(c2nc(OCC3CCCN3C)nc3c(F)c(-c4nc(N)cc(C)c4C(F)(F)F)c(Cl)cc23)C(C)C1 (stereo unspecified) + C#Cc1c(F)ccc2cc(O)cc(-c3ncc4c(N5CC6CCC(C5)N6)nc(OCC56CCCN5CC(F)C6)nc4c3F)c12 ?
inactive

Hi team, can someone confirm the assay call for Nc1ccn(C2OC(CO)C(O)C2(F)F)c(=O)n1 (stereo unspecified) + C#Cc1c(F)ccc2cc(O)cc(-c3ncc4c(N5CC6CCC(C5)N6)nc(OCC56CCCN5CC(F)C6)nc4c3F)c12 ?
active

Hi team, can someone confirm the assay call for O=C(c1ccc(F)c(F)c1Nc1ccc(I)cc1F)N1CC(O)([C@@H]2CCCCN2)C1 + C#Cc1c(F)ccc2cc(O)cc(-c3ncc4c(N5CC6CCC(C5)N6)nc(OCC56CCCN5CC(F)C6)nc4c3F)c12 ?
inactive

Hi team, can someone confirm the assay call for CCN1CCN(Cc2ccc(Nc3ncc(F)c(-c4cc(F)c5nc(C)n(C(C)C)c5c4)n3)nc2)CC1 + C#Cc1c(F)ccc2cc(O)cc(-c3ncc4c(N5CC6CCC(C5)N6)nc(OCC56CCCN5CC(F)C6)nc4c3F)c12 ?
inactive

Hi team, can someone confirm the assay call for O=C(c1ccc(F)c(F)c1Nc1ccc(I)cc1F)N1CC(O)([C@@H]2CCCCN2)C1 + C=CC(=O)N1CCN(c2nc(OCC3CCCN3C)nc3c(F)c(-c4nc(N)cc(C)c4C(F)(F)F)c(Cl)cc23)C(C)C1 ?
inactive

Hi team, can someone confirm the assay call for CC(C)n1nc(-c2ccc3oc(N)nc3c2)c2c(N)ncnc21 + C=CC(=O)N1CCN(c2nc(OCC3CCCN3C)nc3c(F)c(-c4nc(N)cc(C)c4C(F)(F)F)c(Cl)cc23)C(C)C1 ?
inactive

Where these numbers come from: PubChem BioAssay AID2060892
